# measured_on: Glucocorticoid receptor (Homo sapiens)
# test_description: qHTS assay to identify small molecule antagonists of the glucocorticoid receptor (GR) signaling pathway (AID 720692)
# test_parameters: GR-bla HeLa, beta-lactamase FRET ratio, dexamethasone-stimulated, 18 h; series mostly up to 58.5 µM
Records with an inconclusive call do not appear. Active and inactive are the calls of the source. Calls follow the shape of the dose curve; as a rule, active = well fitted inhibition curve with a large enough effect in the signal ratio in the repeat runs (not every such curve was filed as active); inconclusive = weak or mixed curves, or effect the other way; inactive = no such curve, though single readings can be large or run the other way; the % refers to the signal ratio.
Outcomes: active, inactive

[
  {
    "molecule": "O=P1(N(CCCl)CCCl)NC(OO)CCO1 (stereo not given)",
    "measured_on": "Glucocorticoid receptor (Homo sapiens)",
    "class_assignment": "inactive"
  },
  {
    "molecule": "c1ccc2c(c1)Sc1ccccc1N2C[C@@H]1CN2CCC1CC2",
    "measured_on": "Glucocorticoid receptor (Homo sapiens)",
    "class_assignment": "inactive"
  },
  {
    "molecule": "C=C[C@H]1CN2CC[C@H]1C[C@H]2[C@H](OC(=O)OCC)c1ccnc2ccc(OC)cc12",
    "measured_on": "Glucocorticoid receptor (Homo sapiens)",
    "class_assignment": "inactive"
  },
  {
    "molecule": "CN[C@@H]1C[C@@H](c2ccc(Cl)c(Cl)c2)c2ccccc21",
    "measured_on": "Glucocorticoid receptor (Homo sapiens)",
    "class_assignment": "inactive"
  },
  {
    "molecule": "CCN(CC)/[N+]([O-])=N/O",
    "measured_on": "Glucocorticoid receptor (Homo sapiens)",
    "class_assignment": "inactive"
  },
  {
    "molecule": "CNC(=O)OCC[N+](C)(C)C",
    "measured_on": "Glucocorticoid receptor (Homo sapiens)",
    "class_assignment": "inactive"
  },
  {
    "molecule": "C=CCC1(C(C)CCC)C(=O)N=C(S)NC1=O (stereo not given)",
    "measured_on": "Glucocorticoid receptor (Homo sapiens)",
    "class_assignment": "inactive"
  },
  {
    "molecule": "S=C(S)N1CCNCC1",
    "measured_on": "Glucocorticoid receptor (Homo sapiens)",
    "class_assignment": "inactive"
  },
  {
    "molecule": "C[N+]1([O-])[C@@H]2CC[C@H]1CC(OC(=O)C(CO)c1ccccc1)C2 (stereo not given in full)",
    "measured_on": "Glucocorticoid receptor (Homo sapiens)",
    "class_assignment": "inactive"
  },
  {
    "molecule": "OC[C@@H](O)[C@H]1O[C@@H]2O[C@@H](C(Cl)(Cl)Cl)O[C@@H]2[C@H]1O",
    "measured_on": "Glucocorticoid receptor (Homo sapiens)",
    "class_assignment": "inactive"
  },
  {
    "molecule": "CCC1(c2ccccc2)C(=O)NC(=O)N(C)C1=O (stereo not given)",
    "measured_on": "Glucocorticoid receptor (Homo sapiens)",
    "class_assignment": "inactive"
  },
  {
    "molecule": "Cc1ccccc1-n1c(C)nc2ccccc2c1=O",
    "measured_on": "Glucocorticoid receptor (Homo sapiens)",
    "class_assignment": "inactive"
  },
  {
    "molecule": "C[C@@H](N)C(=O)c1ccccc1",
    "measured_on": "Glucocorticoid receptor (Homo sapiens)",
    "class_assignment": "inactive"
  },
  {
    "molecule": "CCC1(c2ccccc2)C(=O)NC(=O)N(C(=O)c2ccccc2)C1=O (stereo not given)",
    "measured_on": "Glucocorticoid receptor (Homo sapiens)",
    "class_assignment": "inactive"
  },
  {
    "molecule": "Cc1cc(C(C)(C)c2ccc(O)c(C)c2)ccc1O",
    "measured_on": "Glucocorticoid receptor (Homo sapiens)",
    "class_assignment": "active"
  },
  {
    "molecule": "CN1C(=O)CC(=O)N(c2ccccc2)c2cc(Cl)ccc21",
    "measured_on": "Glucocorticoid receptor (Homo sapiens)",
    "class_assignment": "inactive"
  },
  {
    "molecule": "O=C1CCO1",
    "measured_on": "Glucocorticoid receptor (Homo sapiens)",
    "class_assignment": "inactive"
  },
  {
    "molecule": "C[N+]1(C)CCCCC1COC(=O)C(O)(c1ccccc1)c1ccccc1 (stereo not given)",
    "measured_on": "Glucocorticoid receptor (Homo sapiens)",
    "class_assignment": "inactive"
  },
  {
    "molecule": "[S]=[Sb](=[S])[S][Sb](=[S])=[S]",
    "measured_on": "Glucocorticoid receptor (Homo sapiens)",
    "class_assignment": "inactive"
  },
  {
    "molecule": "CC(C)NC(C)Cc1ccc(I)cc1 (stereo not given)",
    "measured_on": "Glucocorticoid receptor (Homo sapiens)",
    "class_assignment": "inactive"
  }
]
